System: mouse carcinogenicity bioassay, TD50 from CPDB
Experiment: DSSTox (CPDBAS) Carcinogenic Potency Database Summary Mouse Bioassay Results
Settings: TD50_Mouse_Note: positive test results only by intraperitoneal or intravenous injection; TD50 is harmonic mean of more than one positive; TargetSites_Mouse_Female: kidney; lung
measured.quantity: Potency

Quick note, Potency for `CN(N=O)C(=O)N[C@@H]1[C@@H](O)[C@H](O)[C@@H](CO)O[C@@H]1O` landed at 0.00103 mmol/kg/day

====

Tested on: mouse carcinogenicity bioassay, TD50 from CPDB
Assay: DSSTox (CPDBAS) Carcinogenic Potency Database Summary Mouse Bioassay Results
Details: TD50_Mouse_Note: TD50 is harmonic mean of more than one positive test; TargetSites_Mouse_Female: adrenal gland; liver
measured.quantity: Potency

Some entries whose results are on file:
| molecule.smiles | measured.quantity | data.value |
| --- | --- | --- |
| ClCC(Cl)Cl | Potency | 0.412 mmol/kg/day |
| c1ccoc1 | Potency | 0.04 mmol/kg/day |

Here is the next item to consider.
// Potency (mouse carcinogenicity bioassay, TD50 from CPDB) for `N=C1C=CC(=C(c2ccc(N)cc2)c2ccc(N)cc2)C=C1` = 0.159 mmol/kg/day

====

System: mouse carcinogenicity bioassay, TD50 from CPDB
Assay: DSSTox (CPDBAS) Carcinogenic Potency Database Summary Mouse Bioassay Results
Conditions: TD50_Mouse_Note: TD50 is harmonic mean of more than one positive test; TargetSites_Mouse_Female: lung; mammary gland; uterus
measured.quantity: Potency

// Potency (mouse carcinogenicity bioassay, TD50 from CPDB) for `CN(N=O)c1ncnc2c1ncn2[C@@H]1O[C@H](CO)[C@@H](O)[C@H]1O` = 0.059 mmol/kg/day

====

Test system: mouse carcinogenicity bioassay, TD50 from CPDB
Assay: DSSTox (CPDBAS) Carcinogenic Potency Database Summary Mouse Bioassay Results
Conditions: TD50_Mouse_Note: TD50 is harmonic mean of more than one positive test; TargetSites_Mouse_Female: harderian gland; liver; oral cavity; stomach; uterus
measured.quantity: Potency

Quick note, Potency for `ClCC(Cl)CCl` landed at 0.00593 mmol/kg/day

====

Tested on: mouse carcinogenicity bioassay, TD50 from CPDB
Assay: DSSTox (CPDBAS) Carcinogenic Potency Database Summary Mouse Bioassay Results
Conditions: TD50_Mouse_Note: no positive results; TargetSites_Mouse_Female: no positive results
Activity calls are given as the source filed them.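 The calls were made as follows: active = a tumour-causing dose and a tumour site recorded for mice in at least one sex group; inconclusive = only government mouse studies exist and were judged inadequate; inactive = mouse studies exist but none gave tumours.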

| compound | outcome |
| --- | --- |
| CC1=C[C@H]2O[C@@H]3[C@H](O)[C@@H](O)[C@@](C)(C34CO4)[C@@]2(CO)[C@H](O)C1=O (some centres undefined) | inactive |
| NC(N)=S | inactive |

====

Tested on: mouse carcinogenicity bioassay, TD50 from CPDB
Assay: DSSTox (CPDBAS) Carcinogenic Potency Database Summary Mouse Bioassay Results
Settings: TD50_Mouse_Note: no positive results; TargetSites_Mouse_Female: no positive results
Excerpt: The Carcinogenic Potency Database (CPDB) is a unique and widely used international resource of the results of over 6500 chronic, long-term animal cancer tests on over 1500 chemical substances. The CPDB provides easy access to the bioassay literature, with qualitative and quantitative analyses of both positive and negative experiments that have been published over the past 50 years in the general literature and by the National Cancer Institute/National Toxicology Program. […]
The source made the active and inactive calls.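 How the source made its calls: active means a tumour-causing dose and a tumour site recorded for mice in at least one sex group; inconclusive means only government mouse studies exist and were judged inadequate; inactive means mouse studies exist but none gave tumours.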

| molecule.smiles | outcome |
| --- | --- |
| CN=C(NC#N)NCCSCc1nc[nH]c1C | inactive |
| Cc1[nH]cnc1CSCCN=C(NC#N)N(C)N=O | inactive |
